# system.under.test: SIRT1 (Homo sapiens)
# Sequence (Q96EB6 1-747): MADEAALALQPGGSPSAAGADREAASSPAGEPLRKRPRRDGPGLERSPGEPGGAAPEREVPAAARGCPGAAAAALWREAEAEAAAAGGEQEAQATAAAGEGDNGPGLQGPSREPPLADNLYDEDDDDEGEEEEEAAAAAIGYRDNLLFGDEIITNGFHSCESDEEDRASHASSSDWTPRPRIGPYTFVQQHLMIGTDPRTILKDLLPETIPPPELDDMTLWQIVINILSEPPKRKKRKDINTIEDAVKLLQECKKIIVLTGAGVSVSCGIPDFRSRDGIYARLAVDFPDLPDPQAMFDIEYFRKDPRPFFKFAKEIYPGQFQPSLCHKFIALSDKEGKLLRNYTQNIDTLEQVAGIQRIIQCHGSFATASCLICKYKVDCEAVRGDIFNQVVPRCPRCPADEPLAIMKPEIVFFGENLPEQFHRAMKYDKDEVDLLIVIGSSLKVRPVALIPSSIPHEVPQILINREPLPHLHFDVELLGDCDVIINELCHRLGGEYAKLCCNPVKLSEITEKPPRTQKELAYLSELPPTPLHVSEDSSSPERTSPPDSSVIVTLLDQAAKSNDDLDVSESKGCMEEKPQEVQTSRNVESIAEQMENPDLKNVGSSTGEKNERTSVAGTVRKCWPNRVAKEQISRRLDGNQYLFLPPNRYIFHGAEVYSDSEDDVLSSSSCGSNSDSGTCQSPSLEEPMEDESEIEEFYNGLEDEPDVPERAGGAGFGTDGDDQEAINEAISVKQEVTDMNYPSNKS
endpoint.label: IC50

{"molecule": "C#CCOc1ccc(C(=O)c2ccc(C(=O)N[C@@H](CCCCNC(=S)CCCCCCCCCCCCC)C(=O)N[C@@H](C)C(=O)N[C@@H](C)C(=O)OC)cc2)cc1 [Probe 1C, reference compound]", "system.under.test": "SIRT1 (Homo sapiens)", "IC50": "> 1000 µM"}

Would you kindly look at the next entry?
Return reported IC50; argument: C#CCOc1ccc(C(=O)c2ccc(C(=O)N[C@@H](CCCCNC(=S)CCC(=O)O)C(=O)N[C@@H](C)C(=O)N[C@@H](C)C(=O)OC)cc2)cc1 [Probe 1B, reference compound]
> 5000 µM
